Molecular target: Dual specificity protein kinase CLK4 (Homo sapiens, UniProt Q9HAZ1)
Sequence (Q9HAZ1 whole entry): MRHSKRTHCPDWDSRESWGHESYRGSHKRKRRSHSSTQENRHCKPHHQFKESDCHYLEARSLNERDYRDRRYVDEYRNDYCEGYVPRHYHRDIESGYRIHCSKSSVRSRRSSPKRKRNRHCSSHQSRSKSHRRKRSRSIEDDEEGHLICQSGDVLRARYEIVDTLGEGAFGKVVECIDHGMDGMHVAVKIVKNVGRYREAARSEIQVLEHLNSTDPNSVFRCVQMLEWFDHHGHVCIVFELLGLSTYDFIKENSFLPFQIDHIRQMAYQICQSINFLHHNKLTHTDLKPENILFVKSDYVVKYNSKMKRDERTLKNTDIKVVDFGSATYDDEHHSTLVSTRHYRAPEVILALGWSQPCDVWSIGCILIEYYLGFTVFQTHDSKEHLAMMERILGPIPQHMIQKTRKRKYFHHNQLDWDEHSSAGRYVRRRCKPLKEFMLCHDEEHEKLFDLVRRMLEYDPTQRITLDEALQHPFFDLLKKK
Type: functional
Activity calls are given as the source filed them.
Reported Ki by item:
Measurement name: Ki

compound="O=C1CC(c2ccc(F)cc2)Cc2[nH]c3cc(Cl)ccc3c(=O)c21 (stereo not given)" obs_value="6.31 µM (active)"
compound=O=C(O)c1ccccc1Nc1ccnc(NCc2cccc(O)c2)n1 obs_value="5.01 µM (active)"
compound=O=C1CN2C(=NN1)COc1ccccc12 obs_value="3.98 µM (active)"
compound=Nc1nonc1-n1cc(CO)nn1 obs_value="63.1 µM (active)"
compound="NC1CCCCC1Nc1nccc(-c2c[nH]c3ncccc23)n1 (stereo not given)" obs_value="0.00631 µM (active)"

###

Target: Corticotropin-releasing factor receptor 2/Corticotropin-releasing factor-binding protein (Homo sapiens, UniProt P24387+Q13324)
Sequence (Q13324 whole entry): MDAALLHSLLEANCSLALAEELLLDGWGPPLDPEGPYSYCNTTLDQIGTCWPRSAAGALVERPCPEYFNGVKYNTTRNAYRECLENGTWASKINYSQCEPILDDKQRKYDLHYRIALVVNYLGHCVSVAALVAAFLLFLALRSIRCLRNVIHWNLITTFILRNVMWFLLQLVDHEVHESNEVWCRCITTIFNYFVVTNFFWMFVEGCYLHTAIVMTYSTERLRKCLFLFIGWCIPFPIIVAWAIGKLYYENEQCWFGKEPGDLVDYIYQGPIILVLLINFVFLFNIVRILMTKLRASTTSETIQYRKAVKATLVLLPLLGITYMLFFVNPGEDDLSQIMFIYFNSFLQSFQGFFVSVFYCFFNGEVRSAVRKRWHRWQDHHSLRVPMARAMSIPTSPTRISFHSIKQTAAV
Sequence (P24387 whole entry): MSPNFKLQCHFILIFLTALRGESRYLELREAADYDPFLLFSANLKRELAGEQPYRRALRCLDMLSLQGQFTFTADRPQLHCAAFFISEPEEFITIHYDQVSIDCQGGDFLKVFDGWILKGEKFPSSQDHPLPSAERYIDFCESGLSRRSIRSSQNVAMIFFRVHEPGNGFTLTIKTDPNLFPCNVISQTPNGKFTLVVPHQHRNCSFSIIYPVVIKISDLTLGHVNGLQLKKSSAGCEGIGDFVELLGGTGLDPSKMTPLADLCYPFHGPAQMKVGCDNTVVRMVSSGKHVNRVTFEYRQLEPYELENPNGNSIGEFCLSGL
Experiment: Dose Response confirmation of uHTS hits for small molecule antagonists of the CRF-binding protein and CRF-R2 receptor complex.
Type: functional
Conditions: read-out: IC50_Mean
The source made the active and inactive calls.
Possible outcomes: true (1) (active), false (0) (inactive)

compound="Cc1[nH]c(=O)[nH]c(=O)c1S(=O)(=O)N1CCCC(C(=O)N2CCN(c3ccccc3Cl)CC2)C1 (stereo not drawn)" assigned_label="false (0)"
compound=CCCCN(c1ccc(C(=O)OC)cc1)S(=O)(=O)c1ccccc1 assigned_label="true (1)"
compound="NC(=O)c1ccc(NCC2COc3ccccc3O2)c([N+](=O)[O-])c1 (stereo not drawn)" assigned_label="false (0)"
compound=O=C(Nc1cccc(O)c1)c1ccc(NC(=O)c2cccs2)cc1 assigned_label="false (0)"
compound=CCN(CC(=O)Nc1c(F)cccc1F)C(=O)c1ccc2c(=O)n3c(nc2c1)CCC3 assigned_label="false (0)"
compound=CC(=O)c1ccc(N2CCN(C(=O)c3cccc(Oc4ccccc4)c3)CC2)cc1 assigned_label="true (1)"
compound=O=C1CCc2cc(S(=O)(=O)N3CCC(C(=O)NC4CCCCCCC4)CC3)ccc2N1 assigned_label="false (0)"
compound="COC(=O)C(NC(=O)c1ccc(F)cc1)(Nc1ncc(S(=O)(=O)c2ccc([N+](=O)[O-])cc2)s1)C(F)(F)F (stereo not drawn)" assigned_label="true (1)"
compound=COc1ccc(C(=O)/C(C#N)=N/Nc2ccccc2[N+](=O)[O-])cc1 assigned_label="true (1)"
compound=O=C(CNc1ccccc1)N/N=C/c1ccc([N+](=O)[O-])o1 assigned_label="false (0)"
compound=O=C(CCCc1ccccc1)N1CCN(c2ccc([N+](=O)[O-])cc2)CC1 assigned_label="false (0)"
compound=Cc1ccccc1Cn1c(=O)sc2ccccc2c1=O assigned_label="false (0)"
compound=CCOc1ccc(NC(=O)Nc2cc(C)ccc2OC)cc1 assigned_label="false (0)"
compound=Cc1ccc(NC(=O)COC(=O)CCC(=O)c2cccs2)c(Br)c1 assigned_label="false (0)"
compound=O=C(Nc1cc(S(=O)(=O)N2CCCCC2)ccc1N1CCCCC1)C1CC1 assigned_label="true (1)"
compound=Cc1cc(C)n(C(=O)CNC(=O)c2ccccc2Br)n1 assigned_label="false (0)"
compound=CC#CCCCC(=O)Nc1ccccc1C(=O)O assigned_label="false (0)"
compound=CCOC(=O)Nc1ccc(Oc2ccccc2)cc1 assigned_label="true (1)"

###

Target: Peroxisome proliferator-activated receptor gamma/Nuclear receptor coactivator 1 (Homo sapiens, UniProt P37231)
Sequence (P37231 whole entry): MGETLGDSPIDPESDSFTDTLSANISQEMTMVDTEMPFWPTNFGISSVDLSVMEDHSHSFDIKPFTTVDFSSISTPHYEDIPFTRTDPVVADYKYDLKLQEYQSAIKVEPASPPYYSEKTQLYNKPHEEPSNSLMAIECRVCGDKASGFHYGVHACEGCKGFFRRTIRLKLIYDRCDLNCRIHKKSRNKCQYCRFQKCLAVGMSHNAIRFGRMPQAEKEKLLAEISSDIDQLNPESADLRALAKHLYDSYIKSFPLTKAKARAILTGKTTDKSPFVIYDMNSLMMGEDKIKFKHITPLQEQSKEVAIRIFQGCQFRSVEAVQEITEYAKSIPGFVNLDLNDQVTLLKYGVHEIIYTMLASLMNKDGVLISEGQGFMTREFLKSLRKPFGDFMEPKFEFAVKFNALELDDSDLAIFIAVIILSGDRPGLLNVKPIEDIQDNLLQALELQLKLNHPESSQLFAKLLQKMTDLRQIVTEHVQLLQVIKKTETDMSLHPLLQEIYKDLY
Sequence (Q15788 whole entry, further chain): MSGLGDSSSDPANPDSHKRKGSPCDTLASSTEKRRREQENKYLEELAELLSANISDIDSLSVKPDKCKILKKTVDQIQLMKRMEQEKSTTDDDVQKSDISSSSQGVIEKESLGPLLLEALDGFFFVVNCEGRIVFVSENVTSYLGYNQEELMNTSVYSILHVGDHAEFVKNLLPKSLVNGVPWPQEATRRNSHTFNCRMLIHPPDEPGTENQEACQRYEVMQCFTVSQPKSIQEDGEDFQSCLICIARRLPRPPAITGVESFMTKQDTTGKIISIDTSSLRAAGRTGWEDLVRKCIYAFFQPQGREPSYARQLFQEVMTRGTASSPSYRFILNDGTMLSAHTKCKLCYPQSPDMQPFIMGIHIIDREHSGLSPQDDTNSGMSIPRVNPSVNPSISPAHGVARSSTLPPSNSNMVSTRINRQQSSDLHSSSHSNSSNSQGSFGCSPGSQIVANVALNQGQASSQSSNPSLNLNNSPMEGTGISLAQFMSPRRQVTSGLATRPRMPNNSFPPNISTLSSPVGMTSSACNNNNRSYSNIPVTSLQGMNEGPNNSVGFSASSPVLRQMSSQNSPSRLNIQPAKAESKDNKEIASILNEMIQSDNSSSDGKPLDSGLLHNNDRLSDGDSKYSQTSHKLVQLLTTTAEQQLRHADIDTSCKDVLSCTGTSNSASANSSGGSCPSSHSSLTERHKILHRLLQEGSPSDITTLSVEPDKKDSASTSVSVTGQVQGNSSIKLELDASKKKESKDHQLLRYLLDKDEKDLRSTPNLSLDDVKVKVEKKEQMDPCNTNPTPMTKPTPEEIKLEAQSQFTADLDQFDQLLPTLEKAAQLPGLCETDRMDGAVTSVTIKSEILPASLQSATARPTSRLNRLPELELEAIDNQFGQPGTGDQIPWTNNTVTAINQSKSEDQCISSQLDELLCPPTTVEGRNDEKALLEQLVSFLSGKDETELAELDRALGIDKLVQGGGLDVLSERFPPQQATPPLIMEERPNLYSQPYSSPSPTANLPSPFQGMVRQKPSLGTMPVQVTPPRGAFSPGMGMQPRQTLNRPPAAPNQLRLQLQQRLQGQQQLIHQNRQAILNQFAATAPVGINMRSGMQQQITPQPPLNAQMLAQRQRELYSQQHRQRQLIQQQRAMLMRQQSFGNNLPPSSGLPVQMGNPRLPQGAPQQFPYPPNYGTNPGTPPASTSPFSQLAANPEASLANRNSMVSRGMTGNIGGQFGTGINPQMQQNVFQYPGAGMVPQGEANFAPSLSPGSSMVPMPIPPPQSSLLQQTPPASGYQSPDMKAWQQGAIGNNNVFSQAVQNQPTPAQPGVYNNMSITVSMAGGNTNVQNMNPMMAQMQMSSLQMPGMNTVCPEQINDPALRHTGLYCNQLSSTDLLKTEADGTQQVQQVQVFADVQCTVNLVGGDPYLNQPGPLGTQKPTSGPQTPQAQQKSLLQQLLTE
Assay: TR-FRET dose response biochemical High Throughput Screening assay for agonists of the steroid receptor coactivator 1 (SRC-1) recruitment by the peroxisome proliferator-activated receptor gamma (PPAR gamma): non-selective agonists. [Related pubchem assays (depositor defined):AID1300, AID1808, AID504735, AID631]
Assay type: protein assay
Calls of active or inactive are those of the source.
Outcomes: active, inactive

smiles_str=Cn1c(=O)cc(SCC(=O)NCCCN2CCN(c3ccc(F)cc3)CC2)c2ccccc21 assigned_label=inactive
smiles_str=CCOC(=O)C1CCN(C(=O)CSc2cc(=O)n(C)c3ccccc23)CC1 assigned_label=inactive
smiles_str=O=c1oc2cc(O)ccc2c2ccccc12 assigned_label=inactive
smiles_str=Cc1ccc(Sc2ccc(NC(=O)c3ccc(S(C)(=O)=O)cc3Cl)cc2)cc1 assigned_label=active

###

Assay system Cytochrome P450 3A4 (Homo sapiens, UniProt P08684); read-out recorded as AC50.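 Also: CYP3A4 tested as one member of a cytochrome P450 panel screen.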
Measurement name: AC50

compound="CCC(C)NS(=O)(=O)c1ccc(OCC(=O)Nc2ccc3c(c2)OCCO3)cc1 (stereo not given)" measurement_name=AC50 obs_value="15.8 µM (inconclusive)"
compound=COc1ccccc1C(=O)O/N=C1/CCCc2c1ccc(OC)c2[N+](=O)[O-] measurement_name=AC50 obs_value="22.4 µM (inconclusive)"
compound=Cc1cc(OCc2nc(N)nc(N)c2-c2ccc(Cl)c(Cl)c2)ccc1[N+](=O)[O-] measurement_name=AC50 obs_value="3.98 µM (inconclusive)"
compound=COc1ccc(NC(=O)c2cc(S(=O)(=O)N3CCS(=O)(=O)CC3)ccc2Cl)cc1 measurement_name=AC50 obs_value="14.1 µM (inconclusive)"
compound=O=c1c(-c2cc(F)cc(F)c2)nc2cncnc2n1Cc1ccccc1Cl measurement_name=AC50 obs_value="15.8 µM (inconclusive)"
compound=O=C(OCC(=O)c1ccc([N+](=O)[O-])cc1)/C(=C\c1ccc(Cl)cc1)NC(=O)c1ccccc1 measurement_name=AC50 obs_value="22.4 µM (inconclusive)"
compound=C/C(O)=C(/C#N)C(=O)Nc1cc(Br)ccc1Br measurement_name=AC50 obs_value="15.8 µM (inconclusive)"
compound=COc1ccccc1CN1CCCC2(CCN(C(=O)Oc3ccccc3)CC2)C1 measurement_name=AC50 obs_value="15.8 µM (inconclusive)"
compound="CC(NC(=O)Cc1ccc(F)cc1)c1ccccc1 (stereo not given)" measurement_name=AC50 obs_value="25.1 µM (inconclusive)"
compound=CN1CC[C@@]2(CCCN(C(=O)c3ccco3)C2)C1 measurement_name=AC50 obs_value="20 µM (inconclusive)"

###

Target: Induced myeloid leukemia cell differentiation protein Mcl-1 (Homo sapiens, UniProt Q07820)
Sequence (Q07820 whole entry): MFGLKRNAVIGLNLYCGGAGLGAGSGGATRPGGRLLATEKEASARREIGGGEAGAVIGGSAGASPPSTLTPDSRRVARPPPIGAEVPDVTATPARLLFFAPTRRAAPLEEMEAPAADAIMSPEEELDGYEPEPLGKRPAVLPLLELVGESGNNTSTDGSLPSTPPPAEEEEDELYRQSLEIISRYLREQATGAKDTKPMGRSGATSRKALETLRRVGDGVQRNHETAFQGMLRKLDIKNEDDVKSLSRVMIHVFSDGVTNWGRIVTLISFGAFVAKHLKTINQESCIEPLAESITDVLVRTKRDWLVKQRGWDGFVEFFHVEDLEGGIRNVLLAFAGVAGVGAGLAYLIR
Type: functional
Active and inactive are the calls of the source.
The following compounds are shown together with reported IC50 values.
Measurement name: IC50

smiles_str=O=C(O)c1ccccc1/C=N/NC(=O)c1cc(-c2ccco2)nc2ccccc12 assayed_system="Induced myeloid leukemia cell differentiation protein Mcl-1 (Homo sapiens, UniProt Q07820)" obs_value="2.54 µM (active)"
smiles_str=COc1ccc2nc(N3C(=O)C(c4c(O)[nH]c5ccccc45)=NC3=S)sc2c1 assayed_system="Induced myeloid leukemia cell differentiation protein Mcl-1 (Homo sapiens, UniProt Q07820)" obs_value="> 54 µM (active)"
smiles_str=Cc1cc2nc(-c3ccc(SCc4ccc(C(=O)O)cc4)nc3)[nH]c2cc1C assayed_system="Induced myeloid leukemia cell differentiation protein Mcl-1 (Homo sapiens, UniProt Q07820)" obs_value="7.97 µM (active)"
smiles_str=CCc1cc(C(=O)N=Nc2c(O)[nH]c3ccc([N+](=O)[O-])cc23)c2ccccc2n1 assayed_system="Induced myeloid leukemia cell differentiation protein Mcl-1 (Homo sapiens, UniProt Q07820)" obs_value="6.88 µM (active)"

###

Assay: cells
Activity calls are given as the source filed them.
# IC50 listing for each entry below
Measurement name: IC50

molecule="CCOc1ccc(N2C(=O)C(CC(=O)Nc3ccccc3)N(Cc3ccccn3)C2=S)cc1 (centres undefined)" measurement_name=IC50 obs_value="5 µM (active)"
molecule=CCn1c(SC)nnc1-c1sc2cc(Cl)ccc2c1Cl measurement_name=IC50 obs_value="9.26 µM (active)"
molecule="COCCn1c(SC(C)C(=O)Nc2ncc(Cl)cc2Cl)nc2ccccc21 (centres undefined)" measurement_name=IC50 obs_value="14.8 µM (active)"
molecule=COc1cc2c(cc1OC)CN(C(=O)c1cccc(S(=O)(=O)N3CCc4ccccc43)c1)CC2 measurement_name=IC50 obs_value="45.9 µM (active)"
